EXPERIMENTAL_TARGET: human adenosine A2B receptors (Homo sapiens, UniProt P29275)
Sequence (P29275 1-332): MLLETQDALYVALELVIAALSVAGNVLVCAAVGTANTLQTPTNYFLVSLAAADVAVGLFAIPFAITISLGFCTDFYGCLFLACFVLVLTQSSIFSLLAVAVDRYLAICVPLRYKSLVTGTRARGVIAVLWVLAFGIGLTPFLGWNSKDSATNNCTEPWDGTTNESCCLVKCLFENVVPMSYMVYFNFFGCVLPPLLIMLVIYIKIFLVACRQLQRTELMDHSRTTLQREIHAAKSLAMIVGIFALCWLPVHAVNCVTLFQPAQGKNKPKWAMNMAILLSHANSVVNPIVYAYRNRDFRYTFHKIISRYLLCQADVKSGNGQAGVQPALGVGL
MEASUREMENT_DESCRIPTION: FLIPR calcium flux assay, adenosine A2B receptor expressing cells
APPLIED_CONDITIONS: expressed human adenosine A2B receptors in mammalian cell lines, activity range
Protocol: The use of a Fluorometric Imaging Plate Reader (FLIPR) to measure calcium flux in Adenosine-receptor expressing cells is a well-established technique. In this assay calcium flux is triggered by receptor activation and measured through the fluorescence of an incorporated calcium-sensitive dye. The potencies shown were determined using expressed human adenosine A2B receptors in mammalian cell lines. […] Compound potency was determined from dose response curves and are reported as IC50 values.

COMPOUND	IC50
CCNC(=O)c1nc(NCc2cccnc2)nc2ccsc12 [Example 8]	> 500 nM
O=C(c1nc(NCc2cccnc2)nc2ccsc12)N1CCCCC1 [Example 19]	> 500 nM
O=C(NCc1ccccc1)c1nc(NCc2cccnc2)nc2ccsc12 [Example 16]	< 500 nM
CNC(=O)c1nc(NCc2cccnc2)nc2ccsc12 [Example 13]	> 500 nM
C[C@@H](Nc1nc(C(=O)N2CCCC2)c2sccc2n1)c1cccnc1 [Example 22]	> 500 nM
O=C(NCCc1ccccc1)c1nc(NCc2cccnc2)nc2ccsc12 [Example 14]	< 500 nM
O=C(NC1CCCCC1)c1nc(NCc2cccnc2)nc2ccsc12 [Example 15]	< 500 nM
O=C(NC1CC1)c1nc(NCc2cccnc2)nc2ccsc12 [Example 10]	> 500 nM
O=C(c1nc(NCc2cccnc2)nc2ccsc12)N1CCCC1 [Example 9]	< 500 nM
COCCNC(=O)c1nc(NCc2cccnc2)nc2ccsc12 [Example 17]	> 500 nM
CC(Nc1nc(C(=O)NC2CC2)c2sccc2n1)c1cccnc1 (centres unmarked) [Example 20]	< 500 nM
CC(Nc1nc(C(=O)N2CCCC2)c2sccc2n1)c1cccnc1 (racemic) [Example 7]	> 500 nM
C[C@H](Nc1nc(C(=O)N2CCCC2)c2sccc2n1)c1cccnc1 [Example 23]	< 500 nM
CC(C)NC(=O)c1nc(NCc2cccnc2)nc2ccsc12 [Example 11]	< 500 nM
Nc1nc(C(=O)NC2CC2)c2sccc2n1 [Example 21]	> 500 nM
O=C(NCc1cccnc1)c1nc(NCc2cccnc2)nc2ccsc12 [Example 18]	> 500 nM
O=C(NC1CCCC1)c1nc(NCc2cccnc2)nc2ccsc12 [Example 12]	> 500 nM

Sourced from patent US8354415B2
